Assay: qHTS assay to identify small molecule agonists of the hypoxia (HIF-1) signaling pathway - cell viability counter screen (AID 1224844); further: nearly all actives have a fitted effect of over 50% in size
Settings: HRE-bla ME-180 viability, CellTiter-Glo luminescence, 17 h; series mostly up to 76.8 µM
Inconclusive results are not listed. Calls of active or inactive are those of the source. The call rests on the fitted dose curve.
Possible outcomes: YES (active), NO (inactive)

molecule	cat
c1ccc(CN(Cc2ccccc2)Cc2ccccc2)cc1	NO
N#CCCCC(C#N)CCC#N (stereo unspecified)	NO
CNc1ccccc1	NO
CCCC1CCCC(=O)O1 (stereo unspecified)	NO
FC1(F)C(F)(F)C(F)(F)C2(F)C(F)(C1(F)F)C(F)(F)C(F)(F)C1(F)C(F)(F)C(F)(F)C(F)(F)C(F)(F)C12F (stereo unspecified)	NO
NC(=O)c1ccccc1	NO
Nc1cccc2c(=O)[nH][nH]c(=O)c12	NO
CCCCCCC/C=C/C=O	NO
CO[C@@H]1[C@@H](O[C@@H]2O[C@H](C)[C@@H](O[C@H]3C[C@@](C)(O)[C@@H](O)[C@H](C)O3)[C@H](N(C)C)[C@H]2O)[C@@H](CC=O)C[C@@H](C)[C@@H](O[C@@H]2CC[C@H](N(C)C)[C@@H](C)O2)/C=C/C=C/C[C@@H](C)OC(=O)C[C@H]1OC(C)=O	NO
CC(O)C(C)O (stereo unspecified)	NO
O=C(O)CCc1nc2ccccc2[nH]1	NO
Clc1cccc(C(c2ccc3nc[nH]c3c2)n2ccnc2)c1 (stereo unspecified)	NO
CCOC(=O)CC(O)(CC(=O)OCC)C(=O)OCC	NO
C[C@H](CN1CCCC1)C(=O)c1ccc(C(F)(F)F)cc1	NO
O=c1[nH][nH]c2ccccc12	NO
O=C(O)c1cc(C(=O)O)c(C(=O)O)cc1C(=O)O	NO
CCCN(C1CCN(C(=O)C2CCNCC2)CC1)[C@@H]1CCc2ccc(OC)cc2C1	NO
N#Cc1ccc(CC(=O)c2cccc(C(F)(F)F)c2)cc1	NO
O=c1c2ccccc2oc2ccccc12	NO
Nc1nc(Cl)nc2c1ncn2[C@H]1C[C@H](O)[C@@H](CO)O1	NO
O=C(OCCOCCOCCOC(=O)c1ccccc1)c1ccccc1	NO
O=C(OC1C[C@H]2CC[C@@H](C1)[N+]21CCCC1)C(O)(c1ccccc1)c1ccccc1 (stereo partly specified)	NO
O=C(O)c1c2ccccc2cc2ccccc12	NO
CC[C@H](NC(C)C)[C@H](O)c1ccc(O)c2[nH]c(=O)ccc12	NO
CCc1cnc(C(=O)O)c(C(=O)O)c1	NO
NC(=O)c1ccccc1C(N)=O	YES

---

The following compounds are listed with their measured Potency values.
Experiment: qHTS RealTime-Glo MT Cell Viability Assay in HEK293 cells - 40 hour (AID 1224874); further: potency means the concentration at half of the fitted maximal effect; nearly all actives have a fitted effect of over 50% in size
Details: RealTime-Glo luminescence
Records with an inconclusive call do not appear. Activity calls are given as the source filed them. Calls come from the whole dose curve; as a rule, active = well fitted cell-killing curve with a large enough effect in the repeat runs; inconclusive = weak or mixed curves, or effect the other way; inactive = flat fitted curve, though single readings scatter.

record.smiles	Potency
Cc1nc2sccn2c(=O)c1CCN1CCC(=C(c2ccc(F)cc2)c2ccc(F)cc2)CC1	4.25 µM (active)
COc1ccc(C(=O)Nc2ccccc2)cc1[N+](=O)[O-]	24.7 µM (active)
NC(=O)c1ccccc1C(N)=O	31 µM (active)
COc1cc(CNC(=O)CCCC/C=C/C(C)C)ccc1O	8.48 µM (active)
Oc1ccc(CCNCCCCCCNCCc2ccccc2)cc1O	23.9 µM (active)
COc1ccc(/C=C/c2cc(OC)cc(=O)o2)cc1	8.92 µM (active)
O=C(NC1CCN(CCc2c[nH]c3ccccc23)CC1)c1ccccc1	9.52 µM (active)

---

Experiment: qHTS assay to identify small molecule agonists of the farnesoid-X-receptor (FXR) signaling pathway - cell viability counter screen (AID 743218); further: nearly all actives have a fitted effect of over 45% in size
Settings: FXR-bla HEK293T viability, CellTiter-Glo luminescence, 16 h; series mostly up to 62.6 µM
Inconclusive results are not listed. Active and inactive are the calls of the source. The call rests on the fitted dose curve; in most records, active means well fitted cell-killing curve with a large enough effect in the repeat runs; inconclusive means weak or mixed curves, or effect the other way; inactive means no such curve, though single readings can be large or run the other way.
experimental.readout: outcome

molecule	result
CC(C)(C)c1cc(C=O)cc(C(C)(C)C)c1O	inactive
O=C(NC1CCN(CCc2c[nH]c3ccccc23)CC1)c1ccccc1	inactive
CC(C)(C)NCC(O)COc1ccc(NC(=O)NC2CCCCC2)cc1 (stereo not given)	inactive
CCCCCCCCCCCC(=O)OCC	inactive
COC(=O)C(C)(C)C	inactive
C[C@]12CCC(=O)C=C1[C@@H]1C[C@@H]1[C@H]1[C@@H]3[C@@H]4C[C@@H]4[C@@]4(CCC(=O)O4)[C@@]3(C)CC[C@@H]12	inactive
CCC(C(=O)O)c1ccc(N2Cc3ccccc3C2=O)cc1 (stereo not given)	inactive
C1=COCCC1	inactive
O=C(OCCOCCOCCOC(=O)c1ccccc1)c1ccccc1	inactive
CCN(CC)CC(=O)OCC(=O)[C@@]1(O)CC[C@H]2[C@@H]3CCC4=CC(=O)CC[C@]4(C)[C@H]3[C@@H](O)C[C@@]21C	inactive
Cc1c(Cl)cccc1[N+](=O)[O-]	inactive
CCCCCCCCC(=O)OCC(C)OC(=O)CCCCCCCC (stereo not given)	inactive
CC(C(=O)O)c1ccc2c(c1)Cc1cccnc1O2 (stereo not given)	inactive
Nc1ccc(C(=O)Oc2ccccc2)c(O)c1	inactive
CC1=C(C)C(=O)C(C(CCCCCC(=O)O)c2ccccc2)=C(C)C1=O (stereo not given)	inactive

---

Target: Nuclear receptor subfamily 1 group I member 3 (Homo sapiens)
Test: qHTS assay to identify small molecule agonists of the constitutive androstane receptor (CAR) signaling pathway (AID 1224839); further: nearly all actives have a fitted effect of over 15% in size;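 on activation: HepG2 cells stably carrying human CAR and a CYP2B6 luciferase reporter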
Details: HepG2 hCAR CYP2B6-luciferase, agonist mode, 24 h; series mostly up to 92.4 µM
Results filed as inconclusive are left out. Calls of active or inactive are those of the source. The call rests on the fitted dose curve; in most records, active means well fitted activation curve with a large enough effect in the repeat runs; inconclusive means weak or mixed curves; inactive means no such curve, though single readings can be large or run the other way.
Possible outcomes: true (1) (active), false (0) (inactive)

compound	cat
CC(C)C[C@H](NC(=O)[C@H](Cc1ccccc1)NC(=O)c1cnccn1)B(O)O	false (0)
Cc1c(N=C=O)cccc1N=C=O	false (0)
c1ccc(-c2ccc(-c3ccccc3)cc2)cc1	true (1)
CCCCCCCCC(=O)OCC(C)OC(=O)CCCCCCCC (stereo unspecified)	false (0)
COc1cc(C)c(Cc2cnc(N)nc2N)cc1OC	false (0)
CCc1ccc(C(=O)C(C)CN2CCCCC2)cc1 (stereo unspecified)	false (0)
CCOC(OCC)OCC	false (0)
C=CC(=O)NC(C)(C)C	false (0)
O=c1c2ccccc2oc2ccccc12	true (1)
CC(COc1ccccc1)NC(C)C(O)c1ccc(O)cc1 (stereo unspecified)	false (0)
O=C1C=CCCC1	false (0)
NC(=O)c1ccccc1C(N)=O	false (0)
O=C1c2ccccc2C(=O)C1c1ccc2cc(S(=O)(=O)O)cc(S(=O)(=O)O)c2n1	true (1)
Cc1ccc(S(=O)(=O)NC(=O)NC2CCCC2)cc1	false (0)
NCCOCCOCCN	false (0)
Clc1ccccc1-c1nc(-c2ccncc2)no1	true (1)
C=CCCC	false (0)
CCCCOC(=O)C(C)Oc1ccc(Oc2ccc(C(F)(F)F)cn2)cc1 (stereo unspecified)	false (0)
O=C(Nc1ccc2c(c1)Cc1ccccc1-2)C(F)(F)F	true (1)
C/C=C1\[C@H]2C=C(C)C[C@]1(N)c1ccc(=O)[nH]c1C2	false (0)
C(/C=C/C=C/Nc1ccccc1)=Nc1ccccc1	false (0)
CCOc1cc(OCC)c(C(C)=O)cc1OCC	true (1)
CC(=O)OCC(=O)[C@@]1(O)CC[C@H]2[C@@H]3CCC4=CC(=O)C=C[C@]4(C)[C@@]3(F)[C@@H](O)C[C@@]21C	false (0)
CCOc1ccc2c(c1)C(C)CC(C)(C)N2 (stereo unspecified)	true (1)
CCC(CC)C(=O)O	false (0)
CO[C@@H]1COCC[C@@H]1N[C@@H]1CC[C@@](C(=O)N2CCc3ncc(C(F)(F)F)cc3C2)(C(C)C)C1	false (0)
CCCCCCCCCC(C)C=O (stereo unspecified)	false (0)
O=C1OC(=O)C2CC=CCC12 (stereo unspecified)	false (0)
O=[N+]([O-])c1cccc(I)c1	false (0)
Cc1nc2sccn2c(=O)c1CCN1CCC(=C(c2ccc(F)cc2)c2ccc(F)cc2)CC1	false (0)
O=C1c2ccccc2C(=O)c2c1ccc(O)c2O	false (0)
CC(CC(C#N)(c1ccccc1)C(C)C)N(C)C (stereo unspecified)	false (0)
O=C1CCCN1CCO	false (0)
CC(C)NC(=O)c1ccccc1N	false (0)
c1ccc(CN(Cc2ccccc2)Cc2ccccc2)cc1	false (0)
Oc1ccc(CCNCCCCCCNCCc2ccccc2)cc1O	false (0)

---

Test: qHTS assay to identify small molecule agonists of the sonic hedgehog signaling (Shh) pathway - cell viability counter screen (AID 1259366); further: nearly all actives have a fitted effect of over 50% in size
Settings: NIH/3T3 Gli1-Luc viability, CellTiter-Fluor, 24 h; series mostly up to 92.4 µM
Inconclusive results are not listed. The source made the active and inactive calls. The call rests on the fitted dose curve; in most records, active means well fitted cell-killing curve with a large enough effect in the repeat runs; inconclusive means weak or mixed curves, or effect the other way; inactive means flat fitted curve, though single readings scatter.
Possible outcomes: active, inactive

compound	cat
CO[C@@H]1[C@@H](O[C@@H]2O[C@H](C)[C@@H](O[C@H]3C[C@@](C)(O)[C@@H](O)[C@H](C)O3)[C@H](N(C)C)[C@H]2O)[C@@H](CC=O)C[C@@H](C)[C@@H](O[C@@H]2CC[C@H](N(C)C)[C@@H](C)O2)/C=C/C=C/C[C@@H](C)OC(=O)C[C@H]1OC(C)=O	inactive
CCc1cnc(C(=O)O)c(C(=O)O)c1	inactive
Cc1cc(N)n(-c2ccccc2)n1	inactive
CC1(C)C(=O)NC(=O)N1CO	inactive
CC[C@H](NC(C)C)[C@H](O)c1ccc(O)c2[nH]c(=O)ccc12	inactive
c1ccc(CN(Cc2ccccc2)Cc2ccccc2)cc1	inactive
CCCCOC(=O)CC#N	inactive
O=C1OC(=O)C2CC=CCC12 (configuration not stated)	inactive
C=Cc1ccc(C=C)cc1	inactive
C[Si](C)(C)O[Si](C)(C)O[Si](C)(C)C	inactive
CCCc1ccc(OC)cc1	inactive
CCc1ccc(C(=O)C(C)CN2CCCCC2)cc1 (configuration not stated)	inactive
CCCCCCCCCCCC(=O)OCC	inactive
CC(CC(C#N)(c1ccccc1)C(C)C)N(C)C (configuration not stated)	inactive
CC(C(=O)O)c1ccc(/C=C2\CCCCC2=O)cc1 (configuration not stated)	inactive
CC(C)(C)c1cc(C=O)cc(C(C)(C)C)c1O	inactive
CC/C=C/CCO	inactive
CCCCCCCCCCCCSCCOCCO	inactive
CCCCCCCCS	inactive
CC(=O)OCC(=O)[C@@]1(O)CC[C@H]2[C@@H]3CCC4=CC(=O)C=C[C@]4(C)[C@@]3(F)[C@@H](O)C[C@@]21C	inactive
C/C(=C\C(C)CC(C)CC(C)C)C1CC(=O)OC1=O (configuration not stated)	inactive
C/C(=C(\CCO)SS/C(CCO)=C(\C)N(C=O)Cc1cnc(C)nc1N)N(C=O)Cc1cnc(C)nc1N	inactive
OCCOc1cccc(OCCO)c1	inactive
CCOc1ccc(NC(C)=O)cc1N	inactive
C=CC(C)CCC=C(C)C (configuration not stated)	inactive
Cc1c(Nc2ncccc2C(=O)O)cccc1C(F)(F)F	inactive
CC(=O)c1ccc(Cl)c(Cl)c1Cl	inactive
Cc1cc(C)c(C)c(O)c1	inactive
Nc1ccccc1Nc1ccccc1	active
O=C1c2ccccc2C(=O)C1c1ccc2ccccc2n1	inactive
Clc1nc2ccccc2nc1Cl	inactive
CC1(C)[C@@H]2CC[C@]3(C2)[C@@H]1C(=O)CCC3(C)C	inactive
O=C(Cl)c1cc(Cl)cc(Cl)c1	inactive
Cc1cccc(C)c1NC(=O)CN1CCCC1	inactive
COc1ccc(/C(C)=C/C(=O)O)c(OC)c1	inactive
CCC(=O)O[C@]1(C(=O)COC)[C@@H](C)C[C@H]2[C@@H]3CCC4=CC(=O)C=C[C@]4(C)C3(F)[C@@H](O)C[C@@]21C (some centres not stated)	inactive
CS(C)=O	inactive
CCCCOc1ccc(N)cc1	inactive
CCCC1CCCC(=O)O1 (configuration not stated)	inactive
c1ccc(CCNc2nc(-c3ccccc3)cs2)cc1	inactive
CCC(CC)C(=O)O	inactive
CCN(CC)CC(=O)OCC(=O)[C@@]1(O)CC[C@H]2[C@@H]3CCC4=CC(=O)CC[C@]4(C)[C@H]3[C@@H](O)C[C@@]21C	inactive
